Form field: glycan array binding signal (z-score) (one value per entry).
Biological target: Gal(b1-4)GlcNAc(b1-6)Gal(b1-4)GlcNAc
Assay: glycan array binding signal (z-score within array); higher = stronger binding
Conditions: glycan notation: IUPAC condensed, linker removed
The entries come from a sample that favours the strongest signals as a whole.
Lab note: jot down the number only; don't add units.

Use these answered entries as a reference point.
{"BINDER": "MAL-II (Maackia amurensis), P93248 (protein) ATSNSKPTQVLLATFLTFFFLLLNNVNSSDELSFTINNFVPNEADLLFQGEASVSSTGVLQLTRVENGQPQQYSVGRALYAAPVRIWDNTTGSVASFSTSFTFVVKAPNPTITSDGLAFFLAPPDSQIPSGRVSKYLGLFNNSNSDSSNQIVAVEFDTYFGHSYDPWDPNYRHIGIDVNGIESIKTVQWDWINGGVAFATITYLAPNKTLIASLVYPSNQTSFIVAASVDLKEILPEWVRVGFSAATGYPTQVETHDVLSWSFTSTLEANSDAATENNVHIARYTA", "glycan array binding signal (z-score)": -0.23}
{"BINDER": "GIINTLQKYYCRVRGGRCAVLSCLPKEEQIGKCSTRGRKCCRRKK [Beta-Defensin 3 (Homo sapiens), P81534]", "glycan array binding signal (z-score)": -0.485}
{"BINDER": "Thrombomodulin (Mus musculus) (protein) ALAKLQPTGSQCVEHECFALFQGPATFLDASQACQRLQGHLMTVRSSVAADVISLLLSQSSMDLGPWIGLQLPQGCDDPVHLGPLRGFQWVTGDNHTSYSRWARPNDQTAPLCGPLCVTVSTATEAAPGEPAWEEKPCETETQGFLCEFYFTASC", "glycan array binding signal (z-score)": -0.219}
{"BINDER": "Si Bti9 1b-V5-his (Solanum lycopersicum) (protein) MQCNRGCDLALASFYVWRGSNLTLISEMFSTSIADIVSYNNRDNIPNQDSVIAGTRINIPFRCDCLNDGEVLGHAFPYRVKSGDTYDLVARNYSDLTTAQWMMKFNSYPENNIPNTVNLSVVVNCSCGNSDVSKDFGLFVTYPVRAEDNLTSVASAANVSEDIIRRYNPAAVSILDIGQGIIYIPGRDRNGNFPPLPTSTDGLSGGAKKGGRADPAFLYKVVINSKLEGKPIPNPLLGLDSTRTGHHHHHH", "glycan array binding signal (z-score)": -0.272}
{"BINDER": "Gal 9 (Homo sapiens), O00182 (protein) MAFSGSQAPYLSPAVPFSGTIQGGLQDGLQITVNGTVLSSSGTRFAVNFQTGFSGNDIAFHFNPRFEDGGYVVCNTRQNGSWGPEERKTHMPFQKGMPFDLCFLVQSSDFKVMVNGILFVQYFHRVPFHRVDTISVNGSVQLSYISFQNPRTVPVQPAFSTVPFSQPVCFPPRPRGRRQKPPGVWPANPAPITQTVIHTVQSAPGQMFSTPAIPPMMYPHPAYPMPFITTILGGLYPSKSILLSGTVLPSAQRFHINLCSGNHIAFHLNPRFDENAVVRNTQIDNSWGSEERSLPRKMPFVRGQSFSVWILCEAHCLKVAVDGQHLFEYYHRLRNLPTINRLEVGGDIQLTHVQT", "glycan array binding signal (z-score)": -0.17}

Then this binder:
Returns the measured glycan array binding signal (z-score) for the input binder. Input: L-Selectin (Homo sapiens), P14151 (protein) MIFPWKCQSTQRDLWNIFKLWGWTMLCCDFLAHHGTDCWTYHYSEKPMNWQRARRFCRDNYTDLVAIQNKAEIEYLEKTLPFSRSYYWIGIRKIGGIWTWVGTNKSLTEEAENWGDGEPNNKKNKEDCVEIYIKRNKDAGKWNDDACHKLKAALCYTASCQPWSCSGHGECVEIINNYTCNCDVGYYGPQCQFVIQCEPLEAPELGTMDCTHPLGNFSFSSQCAFSCSEGTNLTGIEETTCGPFGNWSSPEPTCQVIQCEPLSAPDLGIMNCSHPLASFSFTSACTFICSEGTELIGKKKTICESSGIWSNPSPICQKLDKSFSMIKEGDYNPLFIPVAVMVTAFSGLAFIIWLARRLKKGKKSKRSMNDPY -0.336
